Entry source: the supplement of paper PMC10065799

biological target: Fyn (UniProt P06241); assay: phosphorylation enrichment, bacterial display (enrichment ratio); higher = better substrate or ligand; peptides without Tyr show the background;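 note: 11-residue human phosphosite peptides and single-mutation variants displayed on the E. coli surface, counted by deep sequencing, each peptide's frequency after selection divided by its frequency in the unselected input library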;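 note: frequency after pTyr selection over input frequency; kinase dosed for 20-30% of maximal phosphorylation in three min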
Sequence (P06241 whole entry, looked up): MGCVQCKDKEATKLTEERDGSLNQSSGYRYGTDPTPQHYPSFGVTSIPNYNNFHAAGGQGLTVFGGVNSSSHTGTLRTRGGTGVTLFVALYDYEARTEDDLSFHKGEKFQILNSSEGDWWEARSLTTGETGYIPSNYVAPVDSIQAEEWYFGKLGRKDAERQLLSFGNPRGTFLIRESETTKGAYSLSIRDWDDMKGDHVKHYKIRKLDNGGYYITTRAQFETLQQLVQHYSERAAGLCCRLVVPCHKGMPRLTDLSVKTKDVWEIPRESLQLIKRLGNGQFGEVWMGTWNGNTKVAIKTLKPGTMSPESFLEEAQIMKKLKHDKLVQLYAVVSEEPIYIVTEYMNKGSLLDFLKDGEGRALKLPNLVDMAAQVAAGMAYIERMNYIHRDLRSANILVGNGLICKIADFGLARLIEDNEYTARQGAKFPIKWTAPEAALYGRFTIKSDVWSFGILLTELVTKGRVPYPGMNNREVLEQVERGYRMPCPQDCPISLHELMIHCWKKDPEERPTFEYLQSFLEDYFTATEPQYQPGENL
Threshold rule: phosphorylation enrichment greater than or equal to 0.5 is condition met; below that, condition not met.

>  <SEQUENCE>
HRGCLYLAIEF [TEK_Y899_Y897C_YF]

>  <TARGET DESC>
Fyn (UniProt P06241)

>  <CLASSIFICATION>
condition not met

$$$$
>  <SEQUENCE>
GKVADYIPQLP [GLS_Y249_A254P]

>  <TARGET DESC>
Fyn (UniProt P06241)

>  <CLASSIFICATION>
condition not met

$$$$
>  <SEQUENCE>
QRIHDYYEHRY [HCN4_Y554]

>  <TARGET DESC>
Fyn (UniProt P06241)

>  <CLASSIFICATION>
condition met

$$$$
>  <SEQUENCE>
QEITTYRRLLE [KRT14_Y415_A413T]

>  <TARGET DESC>
Fyn (UniProt P06241)

>  <CLASSIFICATION>
condition met

$$$$
>  <SEQUENCE>
FFNSEYGELSE [FLT4_Y1337_YF]

>  <TARGET DESC>
Fyn (UniProt P06241)

>  <CLASSIFICATION>
condition met

$$$$
>  <SEQUENCE>
FRIDHYLGKEM [G6PD_Y202_YF]

>  <TARGET DESC>
Fyn (UniProt P06241)

>  <CLASSIFICATION>
condition not met

$$$$

====

biological target: Hck (UniProt P08631); test: phosphorylation enrichment, bacterial display (enrichment ratio); higher = better substrate or ligand; peptides without Tyr show the background
Sequence (P08631 whole entry, looked up): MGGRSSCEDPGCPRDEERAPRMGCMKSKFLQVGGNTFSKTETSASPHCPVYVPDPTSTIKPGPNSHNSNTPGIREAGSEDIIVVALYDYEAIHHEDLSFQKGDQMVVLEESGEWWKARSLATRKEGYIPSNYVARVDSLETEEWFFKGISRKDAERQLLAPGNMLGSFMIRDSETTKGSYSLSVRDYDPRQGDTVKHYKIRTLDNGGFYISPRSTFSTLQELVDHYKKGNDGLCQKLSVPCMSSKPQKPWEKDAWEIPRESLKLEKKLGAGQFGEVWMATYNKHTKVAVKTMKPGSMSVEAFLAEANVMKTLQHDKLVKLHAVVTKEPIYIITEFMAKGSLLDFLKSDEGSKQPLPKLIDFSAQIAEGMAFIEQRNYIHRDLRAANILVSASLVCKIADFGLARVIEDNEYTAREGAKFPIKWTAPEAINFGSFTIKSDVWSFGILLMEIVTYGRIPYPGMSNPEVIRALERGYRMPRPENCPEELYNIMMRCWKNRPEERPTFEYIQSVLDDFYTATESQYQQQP
MEASUREMENT TYPE: phosphorylation enrichment

>  <SEQUENCE>
FGPPQYNMQFS [ERBB2IP_Y977_I979M_YF]

>  <MEASURED>
0.52

$$$$
>  <SEQUENCE>
VYYYSYLLKNH [PTEN_Y180]

>  <MEASURED>
1.74

$$$$
>  <SEQUENCE>
HNVPIYEGYGL [ACTA1_Y168_A172G]

>  <MEASURED>
17.4

$$$$
>  <SEQUENCE>
SGAWSYNTSTE [SELE_Y24]

>  <MEASURED>
0.379

$$$$
>  <SEQUENCE>
ELRGTYTSLQQ [KIF3C_Y574]

>  <MEASURED>
0.956

$$$$
>  <SEQUENCE>
EYDRLYEEYTR [PIK3R1_Y467]

>  <MEASURED>
6.46

$$$$
>  <SEQUENCE>
SSDPDYRAAVD [GLB1_Y154_L155R]

>  <MEASURED>
0.527

$$$$
>  <SEQUENCE>
AELVQYFMEHH [PTPN11_Y80_YF]

>  <MEASURED>
0.66

$$$$
>  <SEQUENCE>
GCAGKYIAMVM [CYP19A1_Y441]

>  <MEASURED>
0.439

$$$$
>  <SEQUENCE>
KENITYMKSEQ [L1TD1_Y24_R27S]

>  <MEASURED>
0.457

$$$$
>  <SEQUENCE>
NNPAYYVLEGV [INPPL1_Y987]

>  <MEASURED>
1.11

$$$$
>  <SEQUENCE>
NAPNSYGRRPS [CDKN2A_Y44_I49S]

>  <MEASURED>
0.512

$$$$
>  <SEQUENCE>
PPKFFYTRKLL [CYBB_Y41]

>  <MEASURED>
0.462

$$$$
>  <SEQUENCE>
ESDGAYIQRMQ [CCDC137_Y125_H127Q]

>  <MEASURED>
0.446

$$$$
>  <SEQUENCE>
QRRNVYYYSYL [PTEN_Y176_Y174N]

>  <MEASURED>
7.54

$$$$
>  <SEQUENCE>
FADIAYNYRQG [PAH_Y166_H170Q]

>  <MEASURED>
0.507

$$$$
>  <SEQUENCE>
QKDIFYGLRSL [IGSF10_Y126_T124I]

>  <MEASURED>
0.676

$$$$
>  <SEQUENCE>
VKANTYEKFWP [GATM_Y100_YF]

>  <MEASURED>
1.07

$$$$
>  <SEQUENCE>
DWRQEYVLNES [TGM1_Y267]

>  <MEASURED>
0.686

$$$$
>  <SEQUENCE>
SENPKYPEVGD [TMEM43_Y233]

>  <MEASURED>
0.536

$$$$
>  <SEQUENCE>
EQKKFYNAMKN [SCN5A_Y1495_K1500N_YF]

>  <MEASURED>
0.388

$$$$
>  <SEQUENCE>
ITNHIYTWVDP [DFNB31_Y234_V229I]

>  <MEASURED>
2.66

$$$$
>  <SEQUENCE>
RVEDACILTCN [CCT6A_Y229_Y229C]

>  <MEASURED>
0.751

$$$$
>  <SEQUENCE>
TLGPFYPSRLF [CRYAA_Y18]

>  <MEASURED>
0.428

$$$$
>  <SEQUENCE>
SNKLFYQLEQE [PDPR_Y110_YF]

>  <MEASURED>
0.641

$$$$
>  <SEQUENCE>
PPPELYFVKVD [TERT_Y707]

>  <MEASURED>
1.4

$$$$
>  <SEQUENCE>
ISDDKYGRIRL [ARCN1_Y310]

>  <MEASURED>
0.454

$$$$
>  <SEQUENCE>
LENQTYFKSFE [AKAP9_Y2482]

>  <MEASURED>
1.22

$$$$
>  <SEQUENCE>
FFVVEYRDQKP [MUC17_Y4332_YF]

>  <MEASURED>
0.515

$$$$

====

molecular target: EPHB2 (UniProt P29323); experiment: phosphorylation enrichment, bacterial display (enrichment ratio); higher = better substrate or ligand; peptides without Tyr show the background
Sequence (P29323 whole entry, looked up): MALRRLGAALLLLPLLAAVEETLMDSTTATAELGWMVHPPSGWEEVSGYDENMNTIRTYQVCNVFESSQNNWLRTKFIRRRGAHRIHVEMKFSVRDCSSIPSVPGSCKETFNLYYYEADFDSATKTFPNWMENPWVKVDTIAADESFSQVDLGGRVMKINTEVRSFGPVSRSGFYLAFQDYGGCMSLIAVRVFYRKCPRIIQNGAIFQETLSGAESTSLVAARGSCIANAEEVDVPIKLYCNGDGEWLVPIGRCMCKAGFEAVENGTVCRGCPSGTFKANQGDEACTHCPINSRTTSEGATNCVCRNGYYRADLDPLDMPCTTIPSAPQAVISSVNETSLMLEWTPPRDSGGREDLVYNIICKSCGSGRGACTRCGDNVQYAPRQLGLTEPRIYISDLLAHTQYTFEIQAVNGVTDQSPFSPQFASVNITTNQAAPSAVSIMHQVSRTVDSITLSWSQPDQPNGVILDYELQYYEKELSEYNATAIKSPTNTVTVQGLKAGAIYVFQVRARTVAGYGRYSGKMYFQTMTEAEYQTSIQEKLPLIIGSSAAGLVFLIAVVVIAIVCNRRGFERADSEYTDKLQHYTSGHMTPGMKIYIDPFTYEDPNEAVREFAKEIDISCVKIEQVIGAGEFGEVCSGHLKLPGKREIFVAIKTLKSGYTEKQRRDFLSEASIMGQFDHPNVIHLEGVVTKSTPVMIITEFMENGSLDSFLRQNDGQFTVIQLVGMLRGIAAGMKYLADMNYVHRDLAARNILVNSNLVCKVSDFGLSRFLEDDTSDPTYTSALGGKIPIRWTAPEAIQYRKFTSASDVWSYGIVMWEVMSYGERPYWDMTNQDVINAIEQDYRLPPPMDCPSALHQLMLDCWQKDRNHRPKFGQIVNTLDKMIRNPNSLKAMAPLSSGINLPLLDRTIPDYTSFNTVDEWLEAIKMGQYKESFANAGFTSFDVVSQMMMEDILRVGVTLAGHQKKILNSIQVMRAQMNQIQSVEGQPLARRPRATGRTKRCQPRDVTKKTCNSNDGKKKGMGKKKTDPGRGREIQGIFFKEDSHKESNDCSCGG

>  <SEQUENCE>
KDQGTYEDYVE [MYL6_Y86]

>  <phosphorylation enrichment>
0.576

$$$$
>  <SEQUENCE>
RAILLYEFVGK [NATD1_Y45_V42I_YF]

>  <phosphorylation enrichment>
65.8

$$$$
>  <SEQUENCE>
RIVEIYSRRLR [GCH1_Y175_Q180R]

>  <phosphorylation enrichment>
0.654

$$$$
>  <SEQUENCE>
HSKGIYYVQLE [MGAT4B_Y262_Q257H]

>  <phosphorylation enrichment>
1.03

$$$$
>  <SEQUENCE>
GAAMLYYPSVS [GPR143_Y177]

>  <phosphorylation enrichment>
1.66

$$$$
>  <SEQUENCE>
IHFAIYFLKYS [ARMC9_Y107_L108F]

>  <phosphorylation enrichment>
0.718

$$$$
>  <SEQUENCE>
DKATEYIQYVR [MAX_Y70_M74V]

>  <phosphorylation enrichment>
0.582

$$$$
>  <SEQUENCE>
VNFDDYTVNLG [GFPT1_Y367]

>  <phosphorylation enrichment>
0.691

$$$$
>  <SEQUENCE>
RRIFSYRGHLW [VHL_Y112_H110Y_YF]

>  <phosphorylation enrichment>
0.541

$$$$
>  <SEQUENCE>
PKGTGCIKTEL [STAT1_Y701_Y701C]

>  <phosphorylation enrichment>
0.54

$$$$
>  <SEQUENCE>
EQYELYCEMGS [CBL_Y371]

>  <phosphorylation enrichment>
8.68

$$$$
>  <SEQUENCE>
INNIDYYKNTT [FGFR2_Y656_K659N]

>  <phosphorylation enrichment>
0.451

$$$$
>  <SEQUENCE>
PPKFFYTRKLL [CYBB_Y41]

>  <phosphorylation enrichment>
0.683

$$$$
>  <SEQUENCE>
LNCAGYCDALE [MTUS1_Y151]

>  <phosphorylation enrichment>
0.578

$$$$

====

target: FGFR1 (UniProt P11362); test: phosphorylation enrichment, bacterial display (enrichment ratio); higher = better substrate or ligand; peptides without Tyr show the background
Sequence (P11362 whole entry, looked up): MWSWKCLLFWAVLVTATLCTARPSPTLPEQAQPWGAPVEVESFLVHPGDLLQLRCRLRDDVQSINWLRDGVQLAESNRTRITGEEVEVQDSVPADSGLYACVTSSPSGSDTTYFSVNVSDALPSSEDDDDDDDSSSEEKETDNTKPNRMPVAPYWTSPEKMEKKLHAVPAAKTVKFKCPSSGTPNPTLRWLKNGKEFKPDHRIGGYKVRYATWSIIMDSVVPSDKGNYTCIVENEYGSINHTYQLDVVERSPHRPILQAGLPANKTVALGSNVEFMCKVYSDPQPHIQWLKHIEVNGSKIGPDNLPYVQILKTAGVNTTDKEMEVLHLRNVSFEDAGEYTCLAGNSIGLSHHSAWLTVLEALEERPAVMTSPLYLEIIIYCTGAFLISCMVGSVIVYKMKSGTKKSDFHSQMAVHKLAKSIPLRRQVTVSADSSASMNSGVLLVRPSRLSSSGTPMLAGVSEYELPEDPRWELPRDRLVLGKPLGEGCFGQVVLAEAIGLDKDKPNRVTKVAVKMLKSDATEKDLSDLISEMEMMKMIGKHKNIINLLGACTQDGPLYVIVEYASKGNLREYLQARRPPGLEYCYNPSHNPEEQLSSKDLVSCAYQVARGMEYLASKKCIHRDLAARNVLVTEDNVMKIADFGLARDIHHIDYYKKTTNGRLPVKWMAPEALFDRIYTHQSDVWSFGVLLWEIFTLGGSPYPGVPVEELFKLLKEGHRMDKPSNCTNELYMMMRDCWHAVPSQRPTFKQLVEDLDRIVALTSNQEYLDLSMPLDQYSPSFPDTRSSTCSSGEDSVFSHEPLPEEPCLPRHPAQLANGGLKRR
MEASUREMENT TYPE: phosphorylation enrichment

>  <SEQUENCE>
KFGTNYRVGSS [CPO_Y278_YF]

>  <MEASUREMENT TYPE>
phosphorylation enrichment

>  <MEASURED>
0.509

$$$$
>  <SEQUENCE>
AGVIIYTSRFQ [PFAS_Y538_A535V]

>  <MEASUREMENT TYPE>
phosphorylation enrichment

>  <MEASURED>
0.679

$$$$
>  <SEQUENCE>
NQDRTYFERVR [SPEN_Y632_S635R_YF]

>  <MEASUREMENT TYPE>
phosphorylation enrichment

>  <MEASURED>
0.421

$$$$
>  <SEQUENCE>
PSQRRYLFFFS [PTEN_Y174_V175L_YF]

>  <MEASUREMENT TYPE>
phosphorylation enrichment

>  <MEASURED>
0.607

$$$$
>  <SEQUENCE>
CFSSEYHFVGG [CTSC_Y345_Y340C_YF]

>  <MEASUREMENT TYPE>
phosphorylation enrichment

>  <MEASURED>
10.4

$$$$
>  <SEQUENCE>
SARVRYLMAEK [LDHB_Y173_F171V]

>  <MEASUREMENT TYPE>
phosphorylation enrichment

>  <MEASURED>
0.482

$$$$
>  <SEQUENCE>
PIDLYYLMDLS [ITGB2_Y131]

>  <MEASUREMENT TYPE>
phosphorylation enrichment

>  <MEASURED>
17.4

$$$$
>  <SEQUENCE>
ALLTKYSHSSM [DSCC1_Y374]

>  <MEASUREMENT TYPE>
phosphorylation enrichment

>  <MEASURED>
0.45

$$$$
>  <SEQUENCE>
DGMADCSDPSY [CDC5L_Y459_Y459C]

>  <MEASUREMENT TYPE>
phosphorylation enrichment

>  <MEASURED>
0.465

$$$$
>  <SEQUENCE>
SLNEEYTKNKT [MSH2_Y563]

>  <MEASUREMENT TYPE>
phosphorylation enrichment

>  <MEASURED>
0.324

$$$$
>  <SEQUENCE>
DSSIRYLQEIY [FGG_Y135]

>  <MEASUREMENT TYPE>
phosphorylation enrichment

>  <MEASURED>
0.59

$$$$
>  <SEQUENCE>
CSRRFYQLTKL [AR_Y858]

>  <MEASUREMENT TYPE>
phosphorylation enrichment

>  <MEASURED>
0.455

$$$$
>  <SEQUENCE>
YSKDIYKRVTG [PANK2_Y405_N404I]

>  <MEASUREMENT TYPE>
phosphorylation enrichment

>  <MEASURED>
0.409

$$$$
>  <SEQUENCE>
LSAPCYLNRIS [HEXA_Y421_W420C]

>  <MEASUREMENT TYPE>
phosphorylation enrichment

>  <MEASURED>
0.495

$$$$
